system: Candida albicans; conditions: Concentration 32 ug.mL-1; ASSAY_TEST Inhibition of Fungal Growth; detection method Absorption (OD530)
Description: Antifungal activity against Candida albicans ATCC 90028 (CO-ADD:FG_001); MIC in YNB media using NBS plates, by OD630
Measured potencies and affinities stand elsewhere.

| compound structure | Inhibition [%] |
| --- | --- |
| Cc1cc(C)c(NC(=O)Cn2nc3c4c5c(sc4ncn3c2=O)CCCC5)c(C)c1 | 39.7 |
| O=S(=O)(c1ccc2nncn2c1)N(Cc1cc(F)cc(F)c1)c1ccccc1 | -0.85 |
| Cc1nc(-c2ccccn2)cc2nn(CC(=O)Nc3ccccc3C(F)(F)F)c(=O)n12 | 0.65 |
| CCCc1nnc2c(=O)n(CC(=O)Nc3cccc(Br)c3)c3ccccc3n12 | 0.12 |
| CSc1ccc(CNC(=O)Cn2nc3c(Oc4ccc(C)cc4)nccn3c2=O)cc1 | 4.95 |
| Cc1cccc(C)c1NC(=O)Cn1nc2c(SC3CCCCC3)nccn2c1=O | 20.03 |
| O=C(CCc1nnc2c(N3CCCCC3)nc3ccccc3n12)NCc1ccc(Br)cc1 | 2.54 |
| Cc1cc2nn(CC(=O)Nc3cc(F)ccc3F)c(=O)n2c(Nc2ccc(C)c(F)c2)n1 | 1.75 |
| O=C(Cn1nc2ccc(-c3ccccc3)nn2c1=O)Nc1ccc(F)c(Cl)c1 | 1.94 |
| Cc1ccc(Cn2nc3c(=O)n(-c4cccc(Cl)c4C)ccn3c2=O)cc1 | 6.45 |
| Cc1cccc(C)c1NC(=O)Cn1nc2c3c4c(sc3ncn2c1=O)CCCC4 | 11.56 |
| O=S(=O)(c1ccc2nncn2c1)N(Cc1cccc(Cl)c1)c1ccc2c(c1)OCO2 | 1.66 |
| CCOc1ccccc1CNC(=O)CCc1nnc2ccc(-c3ccc(C)cc3)nn12 | 2.37 |
| CCCN(C)c1nccn2c(=O)n(CC(=O)Nc3ccc(C#N)cc3)nc12 | 0.92 |
| Cc1ccc(NC(=O)CSc2nc3ccccc3n3c(C(C)C)nnc23)cc1Cl | -0.39 |
| COc1ccc(NC(=O)Cn2nc3c(N4CCOCC4)nccn3c2=O)cc1Cl | 2.64 |
| Cc1cccc(Sc2nc3ccccc3n3c(=O)n(CC(=O)Nc4c(C)cc(C)cc4C)nc23)c1 | 0.56 |
| COc1cccc(-n2ccn3c(SCC(=O)Nc4ccccc4Cl)nnc3c2=O)c1 | 1.92 |
| Cc1cc2nn(CC(=O)Nc3ccccc3F)c(=O)n2c(Nc2ccc(F)c(C)c2)n1 | 7.27 |
| Cc1ccc(-c2ccc3nn(Cc4ccc(Cl)cc4)c(=O)n3n2)cc1C | 5.2 |
| Cc1nnc2ccc(S(=O)(=O)N(Cc3cc(F)cc(F)c3)c3ccccc3)cn12 | 2.01 |
| CCc1nnc2c(SCC(=O)Nc3ccc4c(c3)OCCO4)nc3ccccc3n12 | 5.98 |
| COc1ccc(NC(=O)Cn2nc3c(N4CCCC4)nccn3c2=O)cc1Cl | 1.28 |
| COc1ccc(Cl)cc1NC(=O)Cn1nc2c3cc(-c4ccc(C)c(C)c4)nn3ccn2c1=O | 12.28 |
| Cc1cccc(C)c1NC(=O)CSc1nnc2ccc(C(=O)Nc3cccc(F)c3)cn12 | 10.31 |
| Cc1ccc(NC(=O)Cn2nc3c(Sc4ccccc4)nc4ccccc4n3c2=O)cc1C | 0.48 |
| Cc1cccc(Oc2nc3ccccc3n3c(=O)n(CC(=O)Nc4ccc5c(c4)OCCO5)nc23)c1C | -0.7 |
| Cc1cc(C)c(NC(=O)Cn2nc3c(Sc4cccc(F)c4)nccn3c2=O)c(C)c1 | 0.95 |
| Cc1ccc(N(CC(=O)OC(C)(C)C)S(=O)(=O)c2ccc3nnc(C)n3c2)cc1 | 1.78 |
| COc1cccc(CNC(=O)CSc2nnc3c4cc(-c5ccc(C)cc5)nn4ccn23)c1 | 4.52 |

* * *

In this section we review reported Inhibition values for a set of compounds.
tested on: Candida albicans; settings: Concentration 32 ug.mL-1; ASSAY_TEST Inhibition of Fungal Growth; detection method Absorption (OD530)
Results with a measured potency or affinity are listed apart.
result type: Inhibition (%)

| compound | result type | reported |
| --- | --- | --- |
| CCCNC(=O)Cn1nc2n(Cc3ccco3)c(=O)c3sccc3n2c1=O | Inhibition | 5.01 |
| CCC(Sc1nnc2c(=O)n(-c3ccc(C)c(C)c3)ccn12)C(=O)Nc1ccccc1C (stereo unspecified) | Inhibition | 1 |
| Cc1ccc(C)c(CN(c2ccc(F)c(F)c2)S(=O)(=O)c2cccn3cnnc23)c1 | Inhibition | 1.83 |
| COc1cccc(-n2ccn3c(SCC(=O)Nc4ccc5c(c4)OCCO5)nnc3c2=O)c1 | Inhibition | 3.13 |
| CCOc1ccc(NC(=O)Cn2nc3c4cc(-c5ccc(Cl)cc5)nn4ccn3c2=O)cc1 | Inhibition | 5.03 |
| CCc1ccc(N(Cc2ccc(C)cc2)S(=O)(=O)c2cccn3c(CC)nnc23)cc1 | Inhibition | 5.38 |
| O=C(Cn1nc2ccc(Sc3ccccc3)nn2c1=O)N1CCN(c2ccc(F)cc2)CC1 | Inhibition | 0.64 |
| CCCN(C)c1nccn2c(=O)n(CC(=O)Nc3cccc(C(F)(F)F)c3)nc12 | Inhibition | -0.05 |
| CCOc1ccc(-n2ccn3c(SCc4cccc(C(F)(F)F)c4)nnc3c2=O)cc1 | Inhibition | 0.48 |
| COc1ccc(-c2cc3c4nnc(SCC(=O)NCc5cccc(OC)c5OC)n4ccn3n2)cc1 | Inhibition | 0.88 |
| COC(=O)c1ccc(NC(=O)Cn2nc3ccc(S(=O)(=O)c4ccccc4)nn3c2=O)cc1 | Inhibition | 1.43 |
| CCCCc1ccc(NC(=O)Cn2nc3c(SC4CCCCC4)nccn3c2=O)cc1 | Inhibition | 20.8 |
| Cc1ccc(NC(=O)Cn2nc3ccc(SC(C)C)nn3c2=O)cc1F | Inhibition | 5.51 |
| Cc1cccc(Oc2nccn3c(=O)n(CC(=O)N4CCN(c5ccc(F)cc5)CC4)nc23)c1C | Inhibition | -1.43 |
| O=C(CSc1nnc2c(=O)n(-c3ccccc3)ccn12)Nc1cccc(Cl)c1 | Inhibition | -0.19 |
| C=Cc1ccc(CSc2nnc3c(=O)n(-c4ccc(Br)cc4)ccn23)cc1 | Inhibition | 0.16 |
| Cc1cccc(C)c1NC(=O)Cn1nc2ccc(SCc3ccc(Cl)cc3)nn2c1=O | Inhibition | 27.65 |
| COc1cccc(-n2ccn3c(SCc4cccc(Cl)c4)nnc3c2=O)c1 | Inhibition | 0.25 |
| Cc1ccc(Cl)cc1NC(=O)CSc1nnc2c(=O)n(-c3ccccc3)ccn12 | Inhibition | 2.4 |
| CCc1nnc2c(SCC(=O)Nc3ccc(C)cc3Br)nc3ccccc3n12 | Inhibition | 1.54 |
| O=C(Cn1nc2c(Oc3ccccc3)nccn2c1=O)Nc1ccccc1Cl | Inhibition | -0.88 |
| CCOc1ccc(NC(=O)Cn2nc3c(Sc4ccc(C)cc4C)nccn3c2=O)cc1 | Inhibition | 6.36 |
| CCOc1ccc(NC(=O)Cn2nc3ccc(-c4ccc(C)c(C)c4)nn3c2=O)cc1 | Inhibition | 1.39 |
| CCCCc1ccc(NC(=O)Cn2nc3c(N4CCSCC4)nc4ccccc4n3c2=O)cc1 | Inhibition | -0.87 |
| COC(=O)c1ccc(NC(=O)Cn2nc3c(Oc4ccccc4)nccn3c2=O)cc1 | Inhibition | 3.86 |
| Cc1ccc(-c2cc3c4nn(CC(=O)Nc5ccc6c(c5)OCO6)c(=O)n4ccn3n2)cc1 | Inhibition | 9.65 |
| Cc1ccc(-c2ccc3nn(CC(=O)Nc4ccccc4)c(=O)n3n2)cc1C | Inhibition | -1.46 |
| Cc1ccc(NC(=O)Cn2nc3c(Sc4ccccc4)nccn3c2=O)c(C)c1 | Inhibition | 3.33 |
| COc1ccc(NC(=O)Cn2nc3c(SC4CCCCC4)nccn3c2=O)cc1OC | Inhibition | -2.05 |
| COC(=O)c1cccc(NC(=O)Cn2nc3c(Sc4ccc(C)cc4C)nccn3c2=O)c1 | Inhibition | -2.57 |
| CCc1ccc(NC(=O)Cn2nc3n(Cc4ccco4)c(=O)c4sccc4n3c2=O)cc1 | Inhibition | 5.72 |

* * *

Reported Inhibition values follow for various molecules
test system: Candida albicans; details: Concentration 32 ug.mL-1; ASSAY_TEST Inhibition of Fungal Growth; detection method Absorption (OD530)
Potency and affinity values are given separately.

| compound structure | target | unit abbreviation | Inhibition |
| --- | --- | --- | --- |
| Cc1cc(C)cc(NC(=O)Cn2nc3c4cc(-c5ccc(C)c(C)c5)nn4ccn3c2=O)c1 | Candida albicans | % | 7.8 |
| Cc1cc(C)c(NC(=O)Cn2nc3c(N4CCN(c5ccccc5)CC4)nccn3c2=O)c(C)c1 | Candida albicans | % | 11.4 |
| N#Cc1cccc(NC(=O)Cn2nc3c(Oc4ccccc4)nccn3c2=O)c1 | Candida albicans | % | 1.17 |
| C=Cc1ccc(CN(c2ccc(F)c(F)c2)S(=O)(=O)c2cccn3cnnc23)cc1 | Candida albicans | % | 2.5 |
| CCc1ccc(N(Cc2cccc(F)c2)S(=O)(=O)c2cccn3c(C)nnc23)cc1 | Candida albicans | % | 0.68 |
| Cc1cccc(NC(=O)Cn2nc3c(SCc4ccccc4)nccn3c2=O)c1C | Candida albicans | % | 0.78 |
| Cc1ccc(Oc2nccn3c(=O)n(CC(=O)N4CCN(c5ccccc5F)CC4)nc23)cc1 | Candida albicans | % | -0.66 |
| COc1ccc(NC(=O)c2ccc3nn(CC(=O)Nc4ccc(S(C)(=O)=O)cc4)c(=O)n3c2)cc1 | Candida albicans | % | 15.13 |
